- assayRemarks: Biodistribution in B16F10 melanoma-bearing mice
- Assay type: in vivo, C57BL/6 mice
- runParameters: C57BL/6, mouse, subcutaneous, heart, lung, kidney, pancreas, liver and tumor tissues, read-out: PTX tissue concentration relative to plasma
parameterMeasured: Kp at 2 h

Give its Kp at 2 h value. Item: CC(=O)O[C@H]1C(=O)[C@@]2(C)[C@H]([C@H](OC(=O)c3ccccc3)[C@]3(O)C[C@H](OC(=O)[C@H](O)[C@@H](NC(=O)c4ccccc4)c4ccccc4)C(C)=C1C3(C)C)[C@]1(OC(C)=O)CO[C@@H]1C[C@@H]2O [PTX, Paclitaxel]
> 100

Data provenance: paper PMC12389586
